Value source: ChEMBL document CHEMBL1157805

Please respond with reported pKi for every item in the list.
# protocolSummary: Inhibition of Mycobacterium tuberculosis recombinant riboflavin synthase at […] state after 30 mins by fluorescence assay
Numbers only, as −log10 of the molar value.

[
  {
    "compoundStructure": "O=C1Nc2ccc(S(=O)(=O)NCCCCCCOP(=O)(O)O)c3cccc1c23",
    "measuredProperty": "pKi",
    "quantitativeResult": 5.01
  }
]

Now for the compound whose pKi we want.
Looking up O=C1Nc2ccc(S(=O)(=O)NCCCCC(F)(F)P(=O)(O)O)c3cccc1c23 , I see its pKi listed as 5.39

---

# protocolSummary: Inhibition of Mycobacterium tuberculosis recombinant riboflavin synthase at enzyme-substrate-inhibitor complex state after 30 mins by fluorescence assay
measuredProperty: Ki (µM)
Numbers only, in µM.

// Ki lookup, compound = O=C1Nc2ccc(S(=O)(=O)NCCCCCCOP(=O)(O)O)c3cccc1c23 , result: 898
